- systemTested: HPK1 (Homo sapiens, UniProt Q92918)
- Construct: A HiBiT tag was introduced by CRISPR on the N terminus of HPK1 in Jurkat cells; host or cells: Jurkat cells (ATCC TIB-152), monoclonal line with CRISPR knock-in of HiBiT at the endogenous HPK1 locus
- Sequence (Q92918 whole entry): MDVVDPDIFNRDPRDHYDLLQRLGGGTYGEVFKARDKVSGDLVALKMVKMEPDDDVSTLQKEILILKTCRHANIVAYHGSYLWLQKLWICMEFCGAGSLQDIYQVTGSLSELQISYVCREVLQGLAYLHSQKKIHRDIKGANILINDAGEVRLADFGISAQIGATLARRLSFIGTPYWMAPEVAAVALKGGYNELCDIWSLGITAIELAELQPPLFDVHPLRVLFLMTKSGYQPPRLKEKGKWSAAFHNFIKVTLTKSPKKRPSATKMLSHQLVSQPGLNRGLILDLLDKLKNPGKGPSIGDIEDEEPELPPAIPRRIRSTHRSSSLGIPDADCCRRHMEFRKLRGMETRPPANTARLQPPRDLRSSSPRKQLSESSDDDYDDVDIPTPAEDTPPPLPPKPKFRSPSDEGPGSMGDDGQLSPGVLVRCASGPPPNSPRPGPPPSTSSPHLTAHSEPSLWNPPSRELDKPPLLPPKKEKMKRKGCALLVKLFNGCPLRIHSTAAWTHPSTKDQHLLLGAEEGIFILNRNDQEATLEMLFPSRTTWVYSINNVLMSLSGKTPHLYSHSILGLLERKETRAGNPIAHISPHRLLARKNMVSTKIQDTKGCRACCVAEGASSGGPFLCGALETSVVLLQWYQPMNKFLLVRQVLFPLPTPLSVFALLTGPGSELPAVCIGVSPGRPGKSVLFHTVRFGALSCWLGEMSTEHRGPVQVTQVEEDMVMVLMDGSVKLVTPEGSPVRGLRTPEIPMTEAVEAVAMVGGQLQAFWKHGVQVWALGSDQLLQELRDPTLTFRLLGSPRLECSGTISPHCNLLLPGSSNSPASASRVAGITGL
- methodNotes: HPK1 Cellular HiBit Degradation Assay
- Type: cell-based
- settings: Jurkat, HiBiT HPK1 Jurkat cells, 24 hrs; maximum degradation vs DMSO vehicle control; read-out: Dmax Category
experimentalReadout: Dmax

CC(C)n1cnc2cc(-c3ccc4c(c3)N([C@H]3C[C@@H](N5CCCCC5)C3)C(=O)C43CCN(C(=O)[C@H]4C[C@@H](C)CN(C(=O)C5CCN(c6ccc(C7CCC(=O)NC7=O)cn6)CC5)C4)CC3)nc(NC3CC3)c21 (mixture of isomers) [Example 246] :: 50 to 70%

// Dmax value for CC(C)n1cnc2cc(-c3ccc4c(c3)N([C@H]3C[C@@H](N5CCCCC5)C3)C(=O)C43CCN(C(=O)[C@@H]4CCN(C(=O)C5CCN(c6ccc(C7CCC(=O)NC7=O)cc6)CC5)C4)CC3)nc(NC3CC3)c21 (mixture of isomers) [Example 232] : 70 to 85%

// Dmax value for CC(C)n1cnc2cc(-c3ccc4c(c3)N([C@H]3C[C@@H](N5CCCCC5)C3)C(=O)C43CCN(C(=O)C4(C)CCN(C(=O)[C@H]5CC[C@H](Oc6ccc(C7CCC(=O)NC7=O)cc6)CC5)CC4)CC3)nc(Nc3ccncc3F)c21 (mixture of isomers) [Example 103] : 70 to 85%

// Dmax value for CC(C)n1cnc2cc(-c3ccc4c(c3)N([C@H]3C[C@@H](N5C6CCC5COC6)C3)C(=O)C43CCN(C(=O)C4(C)CCN(C(=O)[C@H]5CC[C@H](Oc6ccc(C7CCC(=O)NC7=O)cc6)CC5)CC4)CC3)nc(NC3CC3)c21 (mixture of isomers) [Example 193] : 50 to 70%

// Dmax value for CC(C)n1cnc2cc(-c3ccc4c(c3)N([C@H]3C[C@@H](N5CCOCC5)C3)C(=O)C43CCN(C(=O)C4(C)CCN(C(=O)C5CCN(c6ccc(C7CCC(=O)NC7=O)cn6)CC5)CC4)CC3)nc(NC3CC3)c21 (mixture of isomers) [Example 216] : 50 to 70%

// Dmax value for CC(C)n1cnc2cc(-c3ccc4c(c3)N([C@H]3C[C@@H](N5CCCCC5)C3)C(=O)C43CCN(C(=O)C4CCN(C(=O)C5CCN(c6ccc(C7CCC(=O)NC7=O)cc6)CC5)CC4)CC3)nc(Nc3ccccc3F)c21 (mixture of isomers) [Example 67] : 70 to 85%

// Dmax value for CC(C)n1cnc2cc(-c3ccc4c(c3)N([C@H]3C[C@@H](N5CCCCC5)C3)C(=O)C43CCN(C(=O)c4ccc(C(=O)N5CCN(c6ccc(C7CCC(=O)NC7=O)cn6)C[C@H]5C)cc4)CC3)nc(Nc3ccccc3F)c21 (mixture of isomers) [Example 100] : 70 to 85%

// Dmax value for COC1CC(C(=O)N2CCC3(CC2)C(=O)N([C@H]2C[C@@H](N4CCCCC4)C2)c2cc(-c4cc5ncn(C(C)C)c5c(NC5CC5)n4)ccc23)CN(C(=O)C2CCN(c3ccc(C4CCC(=O)NC4=O)cn3)CC2)C1 (mixture of isomers) [Example 256] : 50 to 70%

Cited source for all entries: patent US12091426B2
